# tgt: ZFP SBS#1050 (synthetic)
# Sequence (chain, as listed by the source): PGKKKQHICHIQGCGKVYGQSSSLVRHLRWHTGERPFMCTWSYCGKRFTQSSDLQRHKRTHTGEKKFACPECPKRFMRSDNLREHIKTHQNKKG
# test.name: EMSA
# measurement.conditions: tags: MBP fusion
parameter.measured: Kd (nM)
Write the number in nM without appending the unit.

[in] If you can, please state the reported Kd value of CAGGCTGTA (dsDNA) DNA 1: CAGGCTGTA DNA 2: TACAGCCTG .
[out] 0.125
